- Tested on: corn
- Experiment: Test C pre-/postemergence herbicide test
- Assay type: in vivo, Zea mays
- Assay conditions: 125 g ai/ha; scale 0 (no effect) to 100 (complete control); visual, 12 to 14 days; preemergence
Observation type: Plant response rating, Corn
Format: numeric value only, no unit, no commentary.

[[record]]
compound = "C=CCNC(=O)c1cccc(NC(=O)c2sc(C(C)(C)C)nc2C)c1 [Compound 202]"
assayed_target = "corn"
measurement = 0

[[record]]
compound = "CCCn1nc(C(C)(C)C)cc1C(=O)Nc1cccc(C(=O)NCC)c1 [Compound 57]"
assayed_target = "corn"
measurement = 0

[[record]]
compound = "CCn1nc(C(C)(C)C)cc1C(=O)Nc1cccc(C#N)c1 [Compound 139]"
assayed_target = "corn"
measurement = 0


Request: Fill in the recorded Plant response rating, Corn for this compound, with corn as test system: CCc1nc(C(C)(C)C)sc1C(=O)Nc1cccc(C(=O)NCC2CC2)n1 [Compound 215]
Result: 20

----------
- Test system: giant foxtail
- Experiment: Test A pre-/postemergence herbicide test
- Type: in vivo, Setaria faberi
- Assay conditions: Preemergence, 2000 g ai/ha; visual rating, 0 to 100 scale (0 no effect, 100 complete control)
Classify: satisfied when Foxtail, Giant plant response rating is strictly less than 60; not satisfied when Foxtail, Giant plant response rating is not.

Record excerpt, results attached:
[[record]]
structure_notation = "CCn1nc(C(C)(C)C)cc1C(=O)Nc1cccc(C(C)=NO)c1"
cat = "not satisfied"

[[record]]
structure_notation = "Cc1nc(C(C)(C)C)sc1C(=O)Nc1cccc(C(=O)NCC(F)(F)F)c1"
cat = "satisfied"

[[record]]
structure_notation = "Cn1nc(C(C)(C)C)cc1C(=O)Nc1cccc2c1CCCC2=NO"
cat = "satisfied"

[[record]]
structure_notation = "CCn1nc(C(C)(C)C)cc1C(=O)Nc1nccc(OC)n1"
cat = "satisfied"


Request: Criterion: Foxtail, Giant plant response rating strictly below 60. Is it met by `CCn1nc(C(C)(C)C)cc1C(=O)Nc1cccc(C(=O)NC2CC2)n1` ?
Result: satisfied

----------
- Tested on: wild oat
- Experiment: Test B postemergence herbicide test
- Format: in vivo, Avena fatua
- Assay conditions: Postemergence, 500 g ai/ha; scale 0 (no effect) to 100 (complete control)
Observation type: Oat, Wild plant response rating
Format: numeric value only, no unit, no commentary.

[[record]]
molecule = "C#CCOc1cccc(NC(=O)c2cc(C(C)(C)C)nn2CC)c1 [Compound 411]"
observation_type = "Oat, Wild plant response rating"
measurement = 50

[[record]]
molecule = "CCc1nn(C(C)(C)C)nc1C(=O)Nc1cccc(C(=O)N2CCCCC2)c1 [Compound 416]"
observation_type = "Oat, Wild plant response rating"
measurement = 40

[[record]]
molecule = "C#CCNC(=O)c1cccc(NC(=O)c2nn(C(C)C)nc2CC)c1 [Compound 379]"
observation_type = "Oat, Wild plant response rating"
measurement = 0


Request: Query (molecule): C=CCN(CC=C)C(=O)c1ccc(F)c(NC(=O)c2nn(C(C)(C)C)nc2CC)c1 [Compound 387] ; field requested: Oat, Wild plant response rating
Result: 30

Request: Query (molecule): C=CCOc1cccc(NC(=O)c2cc(C(C)(C)C)nn2CC)c1 [Compound 412] ; field requested: Oat, Wild plant response rating
Result: 40

Request: Query (molecule): CCNC(=O)c1cccc(NC(=O)c2nn(C(C)C)nc2C)c1 [Compound 405] ; field requested: Oat, Wild plant response rating
Result: 10

Request: Query (molecule): CCc1nn(C(C)(C)C)nc1C(=O)Nc1cc(C(=O)N(C)CC)ccc1F [Compound 388] ; field requested: Oat, Wild plant response rating
Result: 10

----------
- Test system: wild oat
- Experiment: Test B postemergence herbicide test
- Assay type: in vivo, Avena fatua
- Assay conditions: postemergence, 500 g ai/ha; scale 0 to 100, 0 is no effect, 100 is complete control
- Description: At the same time, plants selected from these crop and weed species and also blackgrass (Alopecurus myosuroides Huds.), wheat (Triticum aestivum L.) and wild oat (Avena fatua L.) were treated with postemergence applications of test chemicals formulated in the same manner. […] Treated plants and controls were maintained in a greenhouse for 13 to 15 days, after which time all species were compared to controls and visually evaluated. […]
// reported Oat, Wild plant response rating for each item listed
Format: numeric value only, no unit, no commentary.

Answered examples (4):
[[record]]
molecule = "C#CCNC(=O)c1cncc(NC(=O)c2cc(C(C)(C)C)nn2CC)c1"
measurement = 20

[[record]]
molecule = "CCc1nn(C2CCCC2)nc1C(=O)Nc1cccc(C(=O)N(C)C)c1"
measurement = 30

[[record]]
molecule = "CCn1nc(C(C)(C)C)cc1C(=O)Nc1cc(C(=O)N2CCCC2)ccc1F"
measurement = 30

[[record]]
molecule = "CCC1=NN(C(C)(C)C)CC1C(=O)Nc1cc(C(=O)N2CC=CC2)ccc1F (racemic)"
measurement = 30


Request: Query (molecule): `CCn1nc(C(C)(C)C)cc1C(=O)Nc1cccc(OC(F)(F)C(F)F)c1` ; field requested: Oat, Wild plant response rating
Result: 60

Request: Query (molecule): `CCn1nc(C(C)(C)C)cc1C(=O)Nc1cncc(C(=O)NCC(F)(F)F)n1` ; field requested: Oat, Wild plant response rating
Result: 20

----------
- System: morningglory
- Experiment: Test A pre-/postemergence herbicide test
- Assay type: in vivo, Ipomoea spp.
- Assay conditions: Postemergence, 500 g ai/ha; 0 to 100 scale, 0 no effect, 100 complete control
- Description: […] Plants ranged in height from 2 to 10 cm and were in the one- to two-leaf stage for the postemergence treatment. Treated plants and untreated controls were maintained in a greenhouse for approximately ten days, after which time all treated plants were compared to untreated controls and visually evaluated for injury. […]
// reported Morningglory plant response rating for each item listed
Format: numeric value only, no unit, no commentary.

Answered examples (5):
[[record]]
structure_notation = "C=CCNC(=O)c1cccc(NC(=O)c2sc(C(C)(C)C)nc2C)c1"
measurement = 75

[[record]]
structure_notation = "C=CCn1nc(C(C)(C)C)cc1C(=O)Nc1cccc(C(C)=NO)c1"
measurement = 20

[[record]]
structure_notation = "C=CCOC(=O)c1cccc(NC(=O)c2cc(C(C)(C)C)nn2CC)c1"
measurement = 20

[[record]]
structure_notation = "C#CCNC(=O)c1cccc(NC(=O)c2cc(C(C)(C)C)nn2C)n1"
measurement = 20

[[record]]
structure_notation = "CCc1nn(C2CCCC2)nc1C(=O)Nc1cccc(C(=O)N(C)C)c1"
measurement = 15


Request: Query (molecule): `CCNC(=O)c1cc(C)cc(NC(=O)c2cc(C(C)(C)C)nn2CC)n1` ; field requested: Morningglory plant response rating
Result: 0

Request: Query (molecule): `CCn1nc(C(C)(C)C)cc1C(=O)Nc1cccc(C(C)=NO)c1` ; field requested: Morningglory plant response rating
Result: 40

Request: Query (molecule): `CC(=NO)c1cccc(NC(=O)c2cc(C(C)(C)C)nn2CC(F)(F)F)c1` ; field requested: Morningglory plant response rating
Result: 20

Request: Query (molecule): `CCn1nc(C(C)(C)C)cc1C(=O)Nc1cccc(C#N)c1` ; field requested: Morningglory plant response rating
Result: 20

----------
- Tested on: morningglory
- Experiment: Test B pre-/postemergence herbicide test
- Format: in vivo, Ipomoea coccinea
- Assay conditions: 125 g ai/ha; visual rating, scale 0 (no effect) to 100 (complete control); postemergence
Observation type: Morningglory plant response rating
Format: numeric value only, no unit, no commentary.

[[record]]
molecule = "C=CCN(CC=C)C(=O)c1ccc(F)c(NC(=O)c2nn(C(C)(C)C)nc2CC)c1"
observation_type = "Morningglory plant response rating"
measurement = 0

[[record]]
molecule = "CCN1N=C(C(C)(C)C)CC1C(=O)Nc1cc(C(=O)N2CCCC2)ccc1F (racemic)"
observation_type = "Morningglory plant response rating"
measurement = 0

[[record]]
molecule = "CCc1nn(C(C)(C)C)nc1C(=O)Nc1cc(C(=O)N(C)CC)ccc1F"
observation_type = "Morningglory plant response rating"
measurement = 10

[[record]]
molecule = "CCn1nc(C(C)(C)C)cc1C(=O)Nc1cccc(OC(F)(F)C(F)F)c1"
observation_type = "Morningglory plant response rating"
measurement = 30

[[record]]
molecule = "CCc1cn(C(C)(C)C)nc1C(=O)Nc1cccc(C(=O)N(C)C)n1"
observation_type = "Morningglory plant response rating"
measurement = 10

[[record]]
molecule = "CCOc1ccc(F)c(NC(=O)c2cc(C(C)(C)C)nn2CC)c1"
observation_type = "Morningglory plant response rating"
measurement = 0

[[record]]
molecule = "CCc1nn(C2CCCC2)nc1C(=O)Nc1cccc(C(=O)N(C)C)c1"
observation_type = "Morningglory plant response rating"
measurement = 10

[[record]]
molecule = "CCC1=NN(C(C)(C)C)CC1C(=O)Nc1cc(C(=O)N2CCCC2)ccc1F (racemic)"
observation_type = "Morningglory plant response rating"
measurement = 20


Request: Query (molecule): `CCNC(=O)c1cccc(NC(=O)c2cc(C(C)(C)C)n[nH]2)c1` ; field requested: Morningglory plant response rating
Result: 0

Request: Query (molecule): CCC1=NN(C(C)(C)C)CC1C(=O)Nc1cc(C(=O)N2CC=CC2)ccc1F (racemic) ; field requested: Morningglory plant response rating
Result: 10

Request: Query (molecule): `CCc1nn(C(C)(C)CC)nc1C(=O)Nc1cccc(C(=O)N2CC=CC2)c1` ; field requested: Morningglory plant response rating
Result: 0

Request: Query (molecule): `CCNC(=O)c1ccc(F)c(N(C(C)=O)C(=O)c2cc(C(C)(C)C)nn2CC)c1` ; field requested: Morningglory plant response rating
Result: 20
